meta.source: ChEMBL document CHEMBL2331448

Assay details: Oral bioavailability in rat at 6 umol/kg
Type: ADME, organism-based
Run conditions: in vivo
Value kind: bioavailability

Ask: Need bioavailability of `COc1ccc(-c2ccc3c(N4CCOCC4)nc(N4C[C@@H](C)O[C@@H](C)C4)nc3n2)cc1CO` , thanks.
Result: 33%

====

Tested on: MDR1
Assay details: Apparent permeability from basolateral to apical side of MDCK2 cells expressing human MDR1 at 10 uM
Format: ADME, cell-based, Canis lupus familiaris, MDCK-II
Run conditions: dog, MDCK-MDR1
Please respond with reported Papp B→A at 10 µM for every item in the list.
Mention the unit after the number when you answer.

Ask: Need Papp B→A at 10 µM of `COc1ccc(-c2ccc3c(N4CCOCC4)nc(N4C[C@@H](C)O[C@@H](C)C4)nc3n2)cc1CNCCO` , thanks.
Result: 16.6 ×10⁻⁶ cm/s

Ask: Need Papp B→A at 10 µM of `COc1ccc(-c2ccc3c(N4CCOCC4)nc(N4C[C@@H](C)O[C@@H](C)C4)nc3n2)cc1CO` , thanks.
Result: 15 ×10⁻⁶ cm/s
